For each of the compounds below, state its IC50.
MEASURED ON: human SGLT1 (Homo sapiens (Human))
Sequence (P13866 whole entry): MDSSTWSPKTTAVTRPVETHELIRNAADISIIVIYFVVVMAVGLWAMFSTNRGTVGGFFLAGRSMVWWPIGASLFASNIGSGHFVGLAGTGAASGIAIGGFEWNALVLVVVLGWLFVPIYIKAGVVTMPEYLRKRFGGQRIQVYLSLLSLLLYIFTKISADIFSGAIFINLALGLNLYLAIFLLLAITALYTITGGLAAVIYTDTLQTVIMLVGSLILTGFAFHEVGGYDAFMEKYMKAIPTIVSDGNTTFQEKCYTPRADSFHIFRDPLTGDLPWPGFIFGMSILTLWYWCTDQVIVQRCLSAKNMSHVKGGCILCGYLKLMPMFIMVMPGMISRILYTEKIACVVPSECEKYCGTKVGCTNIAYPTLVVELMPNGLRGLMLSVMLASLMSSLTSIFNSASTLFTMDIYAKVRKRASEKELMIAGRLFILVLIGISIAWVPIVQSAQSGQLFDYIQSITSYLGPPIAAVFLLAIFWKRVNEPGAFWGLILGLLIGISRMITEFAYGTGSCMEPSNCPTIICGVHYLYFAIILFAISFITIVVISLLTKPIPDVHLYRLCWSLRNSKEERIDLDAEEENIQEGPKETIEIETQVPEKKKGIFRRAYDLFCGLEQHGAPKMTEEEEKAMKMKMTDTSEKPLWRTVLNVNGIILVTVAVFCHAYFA
METHOD NOTES: Inhibitory effect on human SGLT1 activity (14C-AMG uptake in CHO cells expressing hSGLT1)
CONDITIONS: 14C-AMG transport, CHO cells expressing hSGLT1, 2 hours
Numbers only, in nM.

# example entries with known answers
[
  {
    "COMPOUND": "Cc1ccc([C@@H]2O[C@H](CO)[C@@H](O)[C@H](O)[C@H]2O)cc1Cc1ccc(-c2ccc(F)cc2)s1 [Canagliflozin, reference compound]",
    "UNIT": "nM",
    "IC50": 550
  },
  {
    "COMPOUND": "Cc1ccc(Cc2cc([C@@H]3O[C@H](CO)[C@@H](O)[C@H](O)[C@H]3O)c(CC(C)C)c3c2CCC3)cc1 [Example 64]",
    "UNIT": "nM",
    "IC50": 518
  },
  {
    "COMPOUND": "CCCc1c([C@@H]2O[C@H](CO)[C@@H](O)[C@H](O)[C@H]2O)cc(Cc2ccc(C)cc2)c2c1CCC2 [Example 53]",
    "UNIT": "nM",
    "IC50": 94.7
  },
  {
    "COMPOUND": "CCCc1ccc(Cc2cc([C@@H]3O[C@H](CO)C(O)[C@H](O)C3O)c(C)c3c2CCC3)cc1 (stereo in doubt) [Example 6]",
    "UNIT": "nM",
    "IC50": 190
  },
  {
    "COMPOUND": "CCCCc1c([C@@H]2O[C@H](CO)[C@@H](O)[C@H](O)[C@H]2O)cc(Cc2ccc(C)cc2)c2c1CCC2 [Example 58]",
    "UNIT": "nM",
    "IC50": 289
  },
  {
    "COMPOUND": "CCc1ccc(Cc2cc([C@@H]3O[C@H](CO)C(O)[C@H](O)C3O)c(C)c3c2CCC3)cc1 (stereo in doubt) [Example 5]",
    "UNIT": "nM",
    "IC50": 40
  },
  {
    "COMPOUND": "C=Cc1ccc(Cc2cc([C@@H]3O[C@H](CO)[C@@H](O)[C@H](O)[C@H]3O)c(C)c3c2OCC3)cc1 [Example 34]",
    "UNIT": "nM",
    "IC50": 295
  },
  {
    "COMPOUND": "CCOc1ccc(Cc2cc([C@@H]3O[C@H](CO)[C@@H](O)[C@H](O)[C@H]3O)c(C)c3c2CCC3)cc1 [Example 2]",
    "UNIT": "nM",
    "IC50": 76
  }
]

Could you report IC50 for every entry in the following list?
1. CSc1ccc(Cc2cc([C@@H]3O[C@H](CO)[C@@H](O)[C@H](O)[C@H]3O)c(C)c3c2CCC3)cc1 [Example 13]
2. COc1ccc(Cc2cc([C@@H]3O[C@H](CO)[C@@H](O)[C@H](O)[C@H]3O)c(C(C)C)c3c2CCC3)cc1 [Example 61]
3. CCCCc1c([C@@H]2O[C@H](CO)[C@@H](O)[C@H](O)[C@H]2O)cc(Cc2ccc(OC)cc2)c2c1CCC2 [Example 57]
4. Cc1c([C@@H]2O[C@H](CO)C(O)[C@H](O)C2O)cc(Cc2ccc(OC(C)C)cc2)c2c1CCC2 (stereo in doubt) [Example 3]
5. CCc1c([C@@H]2O[C@H](CO)[C@@H](O)[C@H](O)[C@H]2O)cc(Cc2ccc(OC)cc2)c2c1CCC2 [Example 42]

Response line:
15
199
373
142
60.5

The reported measurements were obtained from patent US10752604B2.
